- studySystem: T1, mouse B7-H4ECD mIgG2a Fc fusion protein (mouse, UniProt Q7TSP5 25-257, limits assumed)
- T1 construct: also called mouse B7-H4-mIg fusion protein; Mouse B7-H4-mouse-Ig Fusion Protein; not shown: mouse IgG2a Fc
- T1 sequence: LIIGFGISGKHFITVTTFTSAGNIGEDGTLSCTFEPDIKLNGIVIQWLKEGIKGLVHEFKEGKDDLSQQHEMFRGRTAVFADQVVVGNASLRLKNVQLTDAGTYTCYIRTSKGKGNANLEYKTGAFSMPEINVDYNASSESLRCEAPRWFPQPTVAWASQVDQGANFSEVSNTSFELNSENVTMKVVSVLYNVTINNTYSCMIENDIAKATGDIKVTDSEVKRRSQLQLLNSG
- experimentalDetails: ELISA, mouse B7-H4ECD mIgG2a Fc fusion coated
Would you mind telling me the reported EC50 of each entry?

Asked: Note EC50 for the binder shown: humanized 6H3 variant 6 (antibody, V domains shown, also called V6; Variant 6 (antibody)) VH: EVQLVQSGAEMKKPGASVKVSCKASGYTFTDYYMNWVRQAPGQSLEWMGVINPYNGDTTYNQKFQGRVTVAVDKSATTAYMELSSLRSEDTAVYYCARYPESTYWGQGTLVTVSS VL: DVVMTQSPLSLPVTLGQPASISCRSSQSLVHINGNTYLHWYLQRPGQSPKVLIYKVSNRFSGVPDRFSGSGSGTDFTLKISRVEAEDVGVYFCSQSTHVPLTFGGGTKVEIK
Given back: 130 pM

Asked: Note EC50 for the binder shown: humanized 6H3 variant 4 (antibody, V domains shown, also called V4; Variant 4 (antibody)) VH: EVQLVQSGAEMKKPGASVKVSCKASGYTFTDYYMNWVRQAPGQSLEWIGVINPYNGDTTYNQKFQGRVTVTVDKSATTAYMELSSLRSEDTAVYYCARYPESTYWGQGTLVTVSS VL: DVVMTQSPLSLPVTLGQPASISCRSSQSLVHINGNTYLHWYQQRPGQSPRVLIYKVSNRFSGVPDRFSGSGSGTDFTLKISRVEAEDVGVYFCSQSTHVPLTFGGGTKVEIK
Given back: 80 pM

Asked: Note EC50 for the binder shown: humanized 6H3 variant 1 (antibody, V domains shown, also called V1; H1A L1B) VH: QVQLVQSGAEVKKPGASVKVSCKASGYTFTDYYMHWVRQAPGQGLEWMGIINPYNGDTSYAQKFQGRVTMTRDTSTSTVYMELSSLRSEDTAVYYCARYPESTYWGQGTLVTVSS VL: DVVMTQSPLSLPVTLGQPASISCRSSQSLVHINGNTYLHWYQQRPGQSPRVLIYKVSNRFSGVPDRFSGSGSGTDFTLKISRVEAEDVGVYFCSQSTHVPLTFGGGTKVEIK
Given back: 100 pM
